Data origin: ChEMBL document CHEMBL1125259

Target: Human immunodeficiency virus type 1 reverse transcriptase (Human immunodeficiency virus 1) (UniProt Q72547)
Assay: Compound ability to inhibit the production of HIV reverse transcriptase (RT) in preinfected PBL (peripheral blood lymphocytes) at 14 days at a concentration 1 uM
Assay type: functional
property: Activity (c.p.m. 50ul-1)

{"molecule": "Cc1cn([C@H]2C[C@H](N=[N+]=[N-])[C@@H](COP(=O)(O)OC[C@H]3OC(O)[C@H](O)[C@@H](O)[C@@H]3O)O2)c(=O)[nH]c1=O (stereo partly specified)", "value.observed": 408}
{"molecule": "CCCCCCCCCCCCCCCCOP(=O)(OC[C@H]1OC(O)[C@@H](O)[C@@H](O)[C@@H]1O)OC[C@H]1OC(n2cc(C)c(=O)[nH]c2=O)C[C@@H]1N=[N+]=[N-] (stereo partly specified)", "value.observed": 114000}
{"molecule": "Cc1cn([C@H]2C[C@H](N=[N+]=[N-])[C@@H](CO)O2)c(=O)[nH]c1=O [ZIDOVUDINE]", "value.observed": 2020}
{"molecule": "CCCCCCCCCCCCCCCCOP(=O)(OC[C@H]1OC(O)[C@H](O)[C@@H](O)[C@@H]1O)OC[C@H]1OC(n2cc(C)c(=O)[nH]c2=O)C[C@@H]1N=[N+]=[N-] (stereo partly specified)", "value.observed": 144000}
{"molecule": "Cc1cn([C@H]2C[C@H](N=[N+]=[N-])[C@@H](COP(=O)(O)OCCO[C@H]3O[C@H](CO)[C@@H](O)[C@H](O)[C@@H]3O)O2)c(=O)[nH]c1=O", "value.observed": 39700}
{"molecule": "Cc1cn([C@H]2C[C@H](N=[N+]=[N-])[C@@H](COP(=O)(O)OC[C@H]3OC(O)[C@@H](O)[C@@H](O)[C@@H]3O)O2)c(=O)[nH]c1=O (stereo partly specified)", "value.observed": 46100}

====

Biological target: Human immunodeficiency virus type 1 reverse transcriptase (Human immunodeficiency virus 1)
Test: Compound ability to inhibit the production of HIV reverse transcriptase (RT) in preinfected PBL (peripheral blood lymphocytes) at 21 days at a concentration 1 uM
Format: functional
Decide by Activity (c.p.m. 50ul-1): equal to or exceeding 30000 means met, less means not met.

{"compound": "Cc1cn([C@H]2C[C@H](N=[N+]=[N-])[C@@H](COP(=O)(O)OC[C@H]3OC(O)[C@H](O)[C@@H](O)[C@@H]3O)O2)c(=O)[nH]c1=O (stereo not given in full)", "answer.label": "not met"}
{"compound": "Cc1cn([C@H]2C[C@H](N=[N+]=[N-])[C@@H](COP(=O)(O)OCCO[C@H]3O[C@H](CO)[C@@H](O)[C@H](O)[C@@H]3O)O2)c(=O)[nH]c1=O", "answer.label": "not met"}
{"compound": "Cc1cn([C@H]2C[C@H](N=[N+]=[N-])[C@@H](COP(=O)(O)OC[C@H]3OC(O)[C@@H](O)[C@@H](O)[C@@H]3O)O2)c(=O)[nH]c1=O (stereo not given in full)", "answer.label": "met"}
{"compound": "Cc1cn([C@H]2C[C@H](N=[N+]=[N-])[C@@H](CO)O2)c(=O)[nH]c1=O", "answer.label": "met"}
{"compound": "CCCCCCCCCCCCCCCCOP(=O)(OC[C@H]1OC(O)[C@H](O)[C@@H](O)[C@@H]1O)OC[C@H]1OC(n2cc(C)c(=O)[nH]c2=O)C[C@@H]1N=[N+]=[N-] (stereo not given in full)", "answer.label": "met"}
